experimental.details: Microsomal stability, human liver microsomes
Assay type: in vitro ADME
test.conditions: human liver microsomes 0.5 mg protein/mL, 1 μM test compound, NADPH, 37° C., 60 min; read-out: HLM Clint
# reported microsomal CLint at 1 μM; entries follow

molecule	microsomal CLint at 1 μM
CCC(=O)N[C@@H](C(=O)N1CCN(C)[C@H](C)C1)[C@@H](C)c1ccc(NC(=O)[C@@H](NC(=O)c2ccnn2CC(F)F)C(C2CC2)C2CC2)c(F)c1	< 50 µL/min/mg
CCC(=O)N[C@@H](C(=O)N1CCN(C)[C@H](C)C1)[C@@H](C)c1ccc(NC(=O)[C@@H](NC(=O)C2(F)CC2)[C@H]2CC[C@H](C)CC2)c(F)c1 [H, reference compound]	50 to 150 µL/min/mg
CCC(=O)N[C@@H](C(=O)N1CCN(C)[C@H](C)C1)[C@@H](C)c1ccc(NC(=O)[C@@H](NC(=O)c2ccnn2CCF)[C@H]2CC[C@H](C)CC2)c(F)c1 [F, reference compound]	50 to 150 µL/min/mg
CCC(=O)N[C@@H](C(=O)N1CCN(C)[C@@H](C)C1)[C@@H](C)c1ccc(NC(=O)[C@@H](NC(=O)c2ccnn2CC)C(C2CC2)C2CC2)c(F)c1	50 to 150 µL/min/mg

Could you share which microsomal CLint at 1 μM value was measured for CCn1nccc1C(=O)N[C@H](C(=O)Nc1ccc([C@H](C)[C@@H](NC(=O)N(C)C2CC2)C(=O)N2CCN(C)CC2)cc1F)[C@H]1CC[C@H](C)CC1 [J, reference compound] ? > 150 µL/min/mg

Requested read-out: microsomal CLint at 1 μM. Entry: CCC(=O)N[C@@H](C(=O)N1CCN(C)[C@@H](C)C1)[C@@H](C)c1ccc(NC(=O)[C@@H](NC(=O)c2ccnn2CC)[C@H]2CC[C@H](C)CC2)c(F)c1 [I, reference compound] > 150 µL/min/mg

Give its microsomal CLint at 1 μM value. Item: CCC(=O)N[C@@H](C(=O)N1CCN(C)[C@H](C)C1)[C@@H](C)c1ccc(NC(=O)[C@@H](NC(=O)c2ccnn2CC)C(C2CC2)C2CC2)c(F)c1 50 to 150 µL/min/mg

What does the record list as microsomal CLint at 1 μM for CCn1nccc1C(=O)N[C@H](C(=O)Nc1ccc([C@H](C)[C@@H](NC(=O)COC)C(=O)N2CCN(C)[C@H](C)C2)cc1F)[C@H]1CC[C@H](C)CC1 [D, reference compound] ? 50 to 150 µL/min/mg

Look at this molecule and give its reported microsomal CLint at 1 μM. CCC(=O)N[C@@H](C(=O)N1CCN(C)[C@H](C)C1)[C@@H](C)c1ccc(NC(=O)[C@@H](NC(=O)c2ccnn2CC(F)F)[C@H]2CC[C@H](C)CC2)c(F)c1 [E, reference compound] > 150 µL/min/mg

Dear colleague, I am looking for the recorded microsomal CLint at 1 μM of the following molecule: CCn1nccc1C(=O)N[C@H](C(=O)Nc1ccc([C@H](C)[C@@H](NC(=O)COC)C(=O)N2CCN(C)CC2)cc1F)C(C1CC1)C1CC1 50 to 150 µL/min/mg

* * *

Reported IC50 values for a set of compounds
system: IL-17A/F (Homo sapiens, UniProt Q16552+Q96PD4)
Sequence (Q16552 24-155): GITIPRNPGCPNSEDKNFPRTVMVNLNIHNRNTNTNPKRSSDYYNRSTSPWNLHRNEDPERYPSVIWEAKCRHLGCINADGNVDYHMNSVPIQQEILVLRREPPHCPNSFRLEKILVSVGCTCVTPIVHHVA
Sequence (Q96PD4 31-163): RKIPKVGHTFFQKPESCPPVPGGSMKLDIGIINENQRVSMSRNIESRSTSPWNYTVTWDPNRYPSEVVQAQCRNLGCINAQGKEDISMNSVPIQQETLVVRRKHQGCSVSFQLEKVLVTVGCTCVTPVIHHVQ
experimental.details: IL-17A/F HEK-Blue Cell Assay
Format: cell-based
test.conditions: HEK-Blue IL-17 reporter cells, IL-17A/F stimulation, 20 hours, SEAP readout; read-out: IL17AF HEK Blue pIC50 (converted)

// IC50 lookup, key: CCn1nccc1C(=O)N[C@H](C(=O)Nc1ccc([C@H](C)[C@@H](NC(=O)COC)C(=O)N2CCN(C)C(CF)C2)cc1F)C(C1CC1)C1CC1 (single isomer, unassigned) 10 to 100 nM

Dear colleague, I am looking for the recorded IC50 of the following compound: COCC(=O)N[C@@H](C(=O)N1C[C@@H](C)N(C)C[C@H]1C)[C@@H](C)c1ccc(NC(=O)[C@@H](NC(=O)C2(F)CC2)C(C2CC2)C2CC2)c(F)c1 100 to 10000 nM

Param item = CCn1nccc1C(=O)N[C@H](C(=O)Nc1ccc([C@H](C)[C@@H](NC(=O)C(C)Cc2cc(O)no2)C(=O)N2CCN(C)[C@H](C)C2)cc1F)C(C1CC1)C1CC1 (single isomer, unassigned) [Compound 343] ; retrieve measured IC50. 100 to 10000 nM
